The measured values listed here are drawn from patent US20170145104A1.

Provide the recorded EC50 for the entries that follow.
TESTED_TARGET: T1, human GITR, membrane bound (on activated human T cells and on 3A9-hGITR cells) (human, UniProt Q9Y5U5 26-241)
T1 construct: whole, on cells; the cell is named under assay; also called huGITR; TNFRSF18
T1 sequence (looked up): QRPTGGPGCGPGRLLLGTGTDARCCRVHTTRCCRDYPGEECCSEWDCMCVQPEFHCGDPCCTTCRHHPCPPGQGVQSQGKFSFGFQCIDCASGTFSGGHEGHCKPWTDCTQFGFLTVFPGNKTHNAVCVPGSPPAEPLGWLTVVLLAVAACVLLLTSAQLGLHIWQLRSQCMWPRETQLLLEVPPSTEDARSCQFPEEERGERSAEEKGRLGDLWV
PROTOCOL_DETAILS: FACS binding to 3A9-hGITR transfectant, Geo-MFI (PE); EC50 table beside the curves; unit from the axis
Numbers only, in nM.

INSERT INTO results (binder, parameter, measure_unit, experimental_result) VALUES
  ('28F3 VH CDR3 mutant M98L, D106E (antibody, V domains shown, also called B5) VH: QVQLVESGGGVVQPGRSLRLSCAASGFTFSSYGMHWVRQAPGKGLEWVAVIWYEGSNKYYADSVKGRFTISRDNSKNTLYLQMNSLRAEDTAVYYCARGGSLVRGEYYYGMDVWGQGTTVTVSS VL: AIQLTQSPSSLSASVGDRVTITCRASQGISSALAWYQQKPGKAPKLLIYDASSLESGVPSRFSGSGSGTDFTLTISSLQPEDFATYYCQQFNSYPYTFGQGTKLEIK', 'EC50', 'nM', 0.311);

For every record below, what is its EC50?
1. 28F3 VH CDR3 mutant M98S, D106E (antibody, V domains shown, also called E5) VH: QVQLVESGGGVVQPGRSLRLSCAASGFTFSSYGMHWVRQAPGKGLEWVAVIWYEGSNKYYADSVKGRFTISRDNSKNTLYLQMNSLRAEDTAVYYCARGGSSVRGEYYYGMDVWGQGTTVTVSS VL: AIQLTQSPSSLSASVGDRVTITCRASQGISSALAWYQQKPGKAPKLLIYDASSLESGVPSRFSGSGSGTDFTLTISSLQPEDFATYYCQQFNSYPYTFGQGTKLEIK
2. 28F3 VH CDR3 mutant M98Q, D106E (antibody, V domains shown, also called D5) VH: QVQLVESGGGVVQPGRSLRLSCAASGFTFSSYGMHWVRQAPGKGLEWVAVIWYEGSNKYYADSVKGRFTISRDNSKNTLYLQMNSLRAEDTAVYYCARGGSQVRGEYYYGMDVWGQGTTVTVSS VL: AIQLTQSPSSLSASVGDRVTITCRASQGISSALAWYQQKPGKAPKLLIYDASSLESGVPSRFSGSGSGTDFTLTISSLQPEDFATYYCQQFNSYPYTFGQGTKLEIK
3. 28F3 VH CDR3 mutant M98I, D106E (antibody, V domains shown, also called C5; M98I/D160E) VH: QVQLVESGGGVVQPGRSLRLSCAASGFTFSSYGMHWVRQAPGKGLEWVAVIWYEGSNKYYADSVKGRFTISRDNSKNTLYLQMNSLRAEDTAVYYCARGGSIVRGEYYYGMDVWGQGTTVTVSS VL: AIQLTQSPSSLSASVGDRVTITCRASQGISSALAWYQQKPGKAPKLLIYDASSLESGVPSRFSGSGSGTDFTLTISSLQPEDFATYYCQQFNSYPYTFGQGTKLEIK
4. 28F3 VH CDR3 mutant M98A (antibody, V domains shown, also called F6) VH: QVQLVESGGGVVQPGRSLRLSCAASGFTFSSYGMHWVRQAPGKGLEWVAVIWYEGSNKYYADSVKGRFTISRDNSKNTLYLQMNSLRAEDTAVYYCARGGSAVRGDYYYGMDVWGQGTTVTVSS VL: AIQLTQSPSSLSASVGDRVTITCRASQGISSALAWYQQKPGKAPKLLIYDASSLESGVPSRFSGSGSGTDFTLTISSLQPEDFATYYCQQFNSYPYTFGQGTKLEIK

*A*
2.29
0.968
0.349
1.5
